Reference source for all entries: paper PMC7320011

assay_explanation: Distribution coefficient (shake-flask, octanol/PBS)
Format: physicochemical
experimental_context: ICP-MS

| structure_notation | logD (octanol/PBS) |
| --- | --- |
| COc1ccc(/C=C/c2ccnc(-c3cc(/C=C/c4ccc(OC)cc4)ccn3)c2)cc1.COc1ccc(/C=C/c2ccnc(-c3cc(/C=C/c4ccc(OC)cc4)ccn3)c2)cc1.COc1ccc(/C=C/c2ccnc(-c3cc(/C=C/c4ccc(OC)cc4)ccn3)c2)cc1.F[P-](F)(F)(F)(F)F.F[P-](F)(F)(F)(F)F.[Ru+2] | +2.3 ± 0.3 |
| CN(C)c1ccc(/C=C/c2ccnc(-c3cc(/C=C/c4ccc(N(C)C)cc4)ccn3)c2)cc1.CN(C)c1ccc(/C=C/c2ccnc(-c3cc(/C=C/c4ccc(N(C)C)cc4)ccn3)c2)cc1.CN(C)c1ccc(/C=C/c2ccnc(-c3cc(/C=C/c4ccc(N(C)C)cc4)ccn3)c2)cc1.F[P-](F)(F)(F)(F)F.F[P-](F)(F)(F)(F)F.[Ru+2] | +2.7 ± 0.4 |
| CN(C)c1ccc(/C=C/c2ccnc(-c3cc(/C=C/c4ccc(N(C)C)cc4)ccn3)c2)cc1.CN(C)c1ccc(/C=C/c2ccnc(-c3cc(/C=C/c4ccc(N(C)C)cc4)ccn3)c2)cc1.F[P-](F)(F)(F)(F)F.F[P-](F)(F)(F)(F)F.[Ru+2].c1ccc(-c2ccccn2)nc1 | +1.7 ± 0.3 |

###

Test system mouse colon carcinoma (CT-26) cells, pIC50 listed for each of the molecules.
pIC50: −log10 of the molar value.
value_type: pIC50

| molecule | value_type | observed_measurement |
| --- | --- | --- |
| C(=C\c1ccnc(-c2cc(/C=C/c3ccccc3)ccn2)c1)/c1ccccc1.C(=C\c1ccnc(-c2cc(/C=C/c3ccccc3)ccn2)c1)/c1ccccc1.C(=C\c1ccnc(-c2cc(/C=C/c3ccccc3)ccn2)c1)/c1ccccc1.F[P-](F)(F)(F)(F)F.F[P-](F)(F)(F)(F)F.[Ru+2] | pIC50 | 4.69 |
| COc1ccc(/C=C/c2ccnc(-c3cc(/C=C/c4ccc(OC)cc4)ccn3)c2)cc1.COc1ccc(/C=C/c2ccnc(-c3cc(/C=C/c4ccc(OC)cc4)ccn3)c2)cc1.F[P-](F)(F)(F)(F)F.F[P-](F)(F)(F)(F)F.[Ru+2].c1ccc(-c2ccccn2)nc1 | pIC50 | 5.29 |
| C=CC1=C(C)c2cc3[nH]c(cc4nc(cc5[nH]c(cc1n2)c(C)c5CCC(=O)O)C(CCC(=O)O)=C4C)c(C)c3C=C [PpIX, Protoporphyrin IX, reference compound] | pIC50 | 5.46 |
| COc1ccc(/C=C/c2ccnc(-c3cc(/C=C/c4ccc(OC)cc4)ccn3)c2)cc1.F[P-](F)(F)(F)(F)F.F[P-](F)(F)(F)(F)F.[Ru+2].c1ccc(-c2ccccn2)nc1.c1ccc(-c2ccccn2)nc1 | pIC50 | 6.15 |

###

Test system: HeLa MCTS
assay_explanation: (Photo-)cytotoxicity on 3D MCTS (ATP concentration)
Type: cell-based, human
experimental_context: 2P 800 nm, section interval 5 μm, 1-3 as chloride salts, read-out: IC50 2P irradiation (800 nm, 10 J cm-2)
pIC50: −log10 of the molar value.

| structure_notation | pIC50 |
| --- | --- |
| COc1ccc(/C=C/c2ccnc(-c3cc(/C=C/c4ccc(OC)cc4)ccn3)c2)cc1.COc1ccc(/C=C/c2ccnc(-c3cc(/C=C/c4ccc(OC)cc4)ccn3)c2)cc1.F[P-](F)(F)(F)(F)F.F[P-](F)(F)(F)(F)F.[Ru+2].c1ccc(-c2ccccn2)nc1 | 4.87 |
| COc1ccc(/C=C/c2ccnc(-c3cc(/C=C/c4ccc(OC)cc4)ccn3)c2)cc1.COc1ccc(/C=C/c2ccnc(-c3cc(/C=C/c4ccc(OC)cc4)ccn3)c2)cc1.COc1ccc(/C=C/c2ccnc(-c3cc(/C=C/c4ccc(OC)cc4)ccn3)c2)cc1.F[P-](F)(F)(F)(F)F.F[P-](F)(F)(F)(F)F.[Ru+2] | 4.06 |
| CN(C)c1ccc(/C=C/c2ccnc(-c3cc(/C=C/c4ccc(N(C)C)cc4)ccn3)c2)cc1.F[P-](F)(F)(F)(F)F.F[P-](F)(F)(F)(F)F.[Ru+2].c1ccc(-c2ccccn2)nc1.c1ccc(-c2ccccn2)nc1 | 4.58 |
| CN(C)c1ccc(/C=C/c2ccnc(-c3cc(/C=C/c4ccc(N(C)C)cc4)ccn3)c2)cc1.CN(C)c1ccc(/C=C/c2ccnc(-c3cc(/C=C/c4ccc(N(C)C)cc4)ccn3)c2)cc1.F[P-](F)(F)(F)(F)F.F[P-](F)(F)(F)(F)F.[Ru+2].c1ccc(-c2ccccn2)nc1 | 4.20 |
